Each entry below carries its reported log p a).
Assay: log P by HPLC on reversed-phase column (EEC directive 79/831 Annex V.A8)
Format: physicochemical
Details: HPLC on reversed-phase column
Lab note: record just the number, no unit beside it.

| molecule | observable | result value |
| --- | --- | --- |
| Cc1cccc(Cl)c1NC(=O)c1c([O-])n(Cc2cnc(Cl)s2)c2cccc[n+]12 | log p a) | 2.8 |
| COCC(=O)c1c([O-])n(Cc2ccc(Cl)nc2)c2c(F)ccc[n+]12 | log p a) | 1.44 |
| O=C(Nc1cc(F)ccc1F)c1c([O-])n(Cc2cnc(Cl)s2)c2cccc[n+]12 | log p a) | 3.23 |
| O=C(c1c([O-])n(Cc2cnc(Cl)s2)c2cccc[n+]12)N1CCCC1 | log p a) | 1.52 |

Continue with the next molecule.
Input: I'd like to know its log p a). The molecule in question is Cc1cnc(NC(=O)c2c([O-])n(Cc3ccc(Cl)nc3)c3cccc[n+]23)s1
Output: 2.17

---

Experiment: log P by HPLC on reversed-phase column (EEC directive 79/831 Annex V.A8)
Format: physicochemical
Conditions: HPLC on reversed-phase column (footnote a)
Each entry below carries its reported log p.
Lab note: record just the number, no unit beside it.

Input: I'd like to know its log p. The compound in question is O=C(NC1CC1)c1c([O-])n(Cc2cnc(Cl)s2)c2c(Cl)ccc[n+]12 [Example I-1-140]
Output: 2.01

Input: I'd like to know its log p. The compound in question is Cc1cccc2n(Cc3ccc(Cl)nc3)c([O-])c(C(=O)NC3CC3)[n+]12 [Example I-1-171]
Output: 1.05

Input: I'd like to know its log p. The compound in question is COC(=O)c1c([O-])n(Cc2ccc(Cl)nc2)c2c(C)ccc[n+]12 [Example I-1-160]
Output: 1.39

Input: I'd like to know its log p. The compound in question is N#Cc1cnn(CC(=O)c2c([O-])n(Cc3cnc(Cl)s3)c3cccc[n+]23)c1 [Example I-1-015]
Output: 1.68

Input: I'd like to know its log p. The compound in question is COC(=O)c1c([O-])n(Cc2cnc(Cl)s2)c2cccc(C)[n+]12 [Example I-1-122]
Output: 1.32

---

Test: log P by HPLC on reversed-phase column (EEC directive 79/831 Annex V.A8)
Format: physicochemical
Conditions: HPLC on reversed-phase column
observable: log p a)
Lab note: record just the number, no unit beside it.

Field: example entries. Status: answers known.
| compound | log p a) |
| --- | --- |
| O=C(Nc1ncccc1F)c1c([O-])n(Cc2ccc(Cl)nc2)c2cccc[n+]12 [Example I-1-317] | 1.49 |
| O=C(Nc1ccccc1Cl)c1c([O-])n(Cc2cnc(Cl)s2)c2cccc[n+]12 [Example I-1-234] | 3.29 |
| O=C(Nc1ncccc1C(F)(F)F)c1c([O-])n(Cc2cnc(Cl)s2)c2cccc[n+]12 [Example I-1-336] | 1.99 |

Input: I'd like to know its log p a). The compound in question is O=C(Nc1nccs1)c1c([O-])n(Cc2cnc(Cl)s2)c2cccc[n+]12 [Example I-1-318]
Output: 2.05

Input: I'd like to know its log p a). The compound in question is N#Cc1cccnc1NC(=O)c1c([O-])n(Cc2cnc(Cl)s2)c2cccc[n+]12 [Example I-1-310]
Output: 1.75

Input: I'd like to know its log p a). The compound in question is Cc1cnc(Cn2c([O-])c(C(=O)NC3CC3)[n+]3ccccc23)cn1 [Example I-1-217]
Output: 1.13

Reference for the values: patent US20180282323A1
